compounds and their reported TGI
Test system: MOLT-4 leukemia
Assay: NCI tumour cell line growth inhibition, 48 h
Recorded metric: TGI

INSERT INTO measurements (compound, test_result) VALUES
  ('CCOc1ccc(N=Nc2c(-c3ccccc3)nn(C(=O)CC(=O)Nc3cccc(C)c3)c2-c2ccccc2)cc1', '> 100 µM'),
  ('CCN(CC)C(=O)N[C@@H](Cc1ccccc1)C(=O)NC', '> 100 µM'),
  ('CCOC(=O)NC(C(C(=O)OCC)C(=O)OCC)(C(F)(F)F)C(F)(F)F', '> 100 µM'),
  ('O=[N+]([O-])c1cc([N+](=O)[O-])c(C(Cl)C(Cl)c2ccccc2)cc1C(Cl)C(Cl)c1ccccc1 (centres undefined)', '> 23.3 µM'),
  ('Cc1cc(=O)[nH]c(NN2C(Cl)C(=O)C2c2c(O)ccc3ccccc23)n1 (centres undefined)', '64.1 µM'),
  ('COc1ccc(OC)c(-c2cc(C(=O)O)c3cc4ccccc4cc3n2)c1', '> 100 µM'),
  ('N#Cc1nc(NC(=O)c2ccccc2)sc1N', '> 10 µM'),
  ('O=C1CCCCCCCCCCC1CN(Cc1ccccc1)Cc1ccccc1 (centres undefined)', '62.5 µM'),
  ('O=C1c2cscc2C(=O)c2c(OCc3ccccc3)ccc(OCc3ccccc3)c21', '> 100 µM'),
  ('CN/N=C(/CC(=O)c1sc(-n2nc(-c3ccccc3)cc2-c2ccccc2)nc1C)C(=O)Nc1ccc(Cl)c(Cl)c1', '> 100 µM'),
  ('COC(=O)C1=C(OC(=O)/C(=C/c2c(F)cccc2F)c2ccccc2)C(C(=O)OC)[C@@]2(O)[C@@H](C(=O)OC)[C@H](C)C[C@@H]1[C@@H]2C(=O)OC (some centres undefined)', '> 100 µM'),
  ('NN/C(=N\S(=O)(=O)c1cccc2nsnc12)Nc1ccc(Cl)cc1', '> 100 µM'),
  ('CC1=C2c3ccccc3N(S(=O)(=O)c3ccccc3)[C@H]2[C@H](C(=O)N2C3CC4CC[C@@]3(CS2(=O)=O)C4(C)C)CC1 (some centres undefined)', '75.9 µM'),
  ('O=C(O)c1nc2cc(C(F)(F)F)ccc2[nH]c1=O', '> 100 µM'),
  ('COc1ccc2c(c1)c(-c1nc(-c3cn(C)c4ncccc34)cs1)cn2CCCCN1CCOCC1', '2.8 µM'),
  ('Cc1ccc(C)c(N2C(=O)C(=O)c3c(C)ccc(C)c32)c1', '48.8 µM'),
  ('COC(=O)c1cc(NC(=O)CN(CCN(CC(=O)O)CC(=O)Nc2ccc(O)c(C(=O)OC)c2)CC(=O)O)ccc1O', '> 100 µM'),
  ('CC(=O)Nc1ccc(S(=O)(=O)c2ccc(NC(C)=O)cc2)cc1', '> 100 µM'),
  ('CC1OC(n2cc(I)c(=O)[nH]c2=O)C=CC1=O (centres undefined)', '33.8 µM');

FYI, the data here is from PubChem BioAssay (NCI).
